Examples of molecules with documented relative viability follow.
tested on: LCLC-97TM1; experiment: relative viability (nuclei count vs DMSO), 5 days (fraction); higher = more cells survive; conditions: first compound 0.1265 µM
Lab note: record just the number, no unit beside it.

C[C@@H]1CN(CC(=O)Nc2ccc3c(c2)Cc2cccc(-c4cc(=O)cc(N5CCOCC5)o4)c2S3)C[C@H](C)O1 + NC(=O)Nc1cc(-c2cccc(F)c2)sc1C(=O)N[C@H]1CCCNC1 [AZD7762] (partner 0.2 µM) ... 0.222

Consider now this further molecule.
Form field: reported relative viability of COc1cc(N2CCC(C(N)=O)CC2)ccc1Nc1nc(N)c(Cl)c(Nc2ccccc2S(=O)(=O)C(C)C)n1 [HG-5-88-01] + Cc1nc(NC(=O)N2CCC[C@H]2C(N)=O)sc1-c1ccnc(C(C)(C)C(F)(F)F)c1 [Alpelisib] (partner 2 µM)
0.217

* * *

system: NCI-H1734; assay: relative viability (nuclei count vs DMSO), 5 days (fraction); higher = more cells survive; conditions: first compound 0.03162 µM
measured.parameter: relative viability
Lab note: record just the number, no unit beside it.

CC(C)Oc1cc(Nc2nc(N[C@@H](C)c3ccc(F)cn3)ncc2Cl)n[nH]1 [AZ23] + COc1cccc2cc(-c3nc([C@H]4CC[C@H](C(=O)O)CC4)n4ncnc(N)c34)[nH]c12 [OSI-027] (partner 0.5 µM) ... 0.62
CC(C)Oc1cc(Nc2nc(N[C@@H](C)c3ccc(F)cn3)ncc2Cl)n[nH]1 [AZ23] + CC(=O)c1c(C)c2cnc(Nc3ccc(N4CCNCC4)cn3)nc2n(C2CCCC2)c1=O [Palbociclib] (partner 0.5 µM) ... 0.366
CC(C)Oc1cc(Nc2nc(N[C@@H](C)c3ccc(F)cn3)ncc2Cl)n[nH]1 [AZ23] + Cc1cc(Nc2cc(N3CCN(C)CC3)nc(Sc3ccc(NC(=O)C4CC4)cc3)n2)n[nH]1 [Tozasertib] (partner 0.1 µM) ... 0.289
CC(C)Oc1cc(Nc2nc(N[C@@H](C)c3ccc(F)cn3)ncc2Cl)n[nH]1 [AZ23] + CCNC(=O)c1noc(-c2cc(C(C)C)c(O)cc2O)c1-c1ccc(CN2CCOCC2)cc1 [Luminespib] (partner 0.01 µM) ... 0.181
CC(C)Oc1cc(Nc2nc(N[C@@H](C)c3ccc(F)cn3)ncc2Cl)n[nH]1 [AZ23] + CC(=O)Nc1cccc(-n2c(=O)n(C3CC3)c(=O)c3c(Nc4ccc(I)cc4F)n(C)c(=O)c(C)c32)c1 [Trametinib] (partner 0.02 µM) ... 0.726
CC(C)Oc1cc(Nc2nc(N[C@@H](C)c3ccc(F)cn3)ncc2Cl)n[nH]1 [AZ23] + Cc1nc(NC(=O)N2CCC[C@H]2C(N)=O)sc1-c1ccnc(C(C)(C)C(F)(F)F)c1 [Alpelisib] (partner 2 µM) ... 0.772
CC(C)Oc1cc(Nc2nc(N[C@@H](C)c3ccc(F)cn3)ncc2Cl)n[nH]1 [AZ23] + C[C@]1(O)C[C@@H](c2nc(-c3ccc4ccc(-c5ccccc5)nc4c3)c3c(N)nccn32)C1 [Linsitinib] (partner 1 µM) ... 0.814

Consider now this further compound.
So what relative viability did CC(C)Oc1cc(Nc2nc(N[C@@H](C)c3ccc(F)cn3)ncc2Cl)n[nH]1 [AZ23] + COc1cc2c(Oc3ccc(NC(=O)C4(C(=O)Nc5ccc(F)cc5)CC4)cc3F)ccnc2cc1OCCCN1CCOCC1 [Foretinib] (partner 0.25 µM) get with NCI-H1734?
0.872

Origin of the recorded values: the supplement of paper PMC10307832
